# Test system: ZIKV MR-766 strain
# experiment_description: Viral inhibition assay, post-treatment, old World strain, Vero cells
# Format: cell-based, Zika virus
# cond: Zika virus; old World ZIKV MR-766, Vero cells, post-treatment
Where a name gives a salt, the structure may show the parent alone.
Provide the recorded pEC50 for the entries that follow.
Give bare numbers, as −log10 of the molar value.

[
  {
    "compound": "O=c1cnn([C@@H]2O[C@H](CO)[C@@H](O)[C@H]2O)c(=O)[nH]1",
    "assayed_system": "ZIKV MR-766 strain",
    "experimental_value": 6.12
  }
]

# batch size: 5; output pEC50 per entry
1. COC1=CC(c2cc3ccccc3[nH]2)=N/C1=C\c1[nH]c(C)cc1C [Obatoclax, Obatoclax mesylate]
2. COc1c(C)c2c(c(O)c1C/C=C(\C)CCC(=O)O)C(=O)OC2
3. CCCCCC[C@H]1C(=O)O[C@H](C)[C@H](NC(=O)c2cccc(NC=O)c2O)C(=O)O[C@@H](C)[C@@H]1OC(=O)CC(C)C [Antimycin A]
4. COc1c(C)c2c(c(O)c1C/C=C(\C)CCC(=O)OCCN1CCOCC1)C(=O)OC2 [Mycophenolate mofetil]
5. CC[C@H](CC#N)OC(=O)N[C@@H](C)c1cccc(NC(=O)Nc2ccc(-c3cnco3)c(OC)c2)c1

1. 6.43
2. 6.82
3. 7.52
4. 6.62
5. 6.48
